Tested on: Escherichia coli TOP10
Assay Explanation: shrunken log2 fold change of peptide-encoding DNA abundance (4.5 h post-induction vs induction); higher = less antimicrobial activity (less host growth inhibition)
Measurement Conditions: time post-induction: 4.5 h; library: site-saturation at positions 5, 18, 19, 20
Catalogue of sequences with associated shrunken log2 fold change
# answer = number (no unit)

- Biosequence: "RRIRERPPRLPRPRPRPNEMPRP"
  shrunken log2 fold change: 0.0665
- Biosequence: "RRIRDRPPRLPRPRPRPGFHPRP"
  shrunken log2 fold change: 0.0294
- Biosequence: "RRIRTRPPRLPRPRPRPRYTPRP"
  shrunken log2 fold change: 0.0216
- Biosequence: "RRIRIRPPRLPRPRPRPDFCPRP"
  shrunken log2 fold change: -0.42
- Biosequence: "RRIRSRPPRLPRPRPRPSTDPRP"
  shrunken log2 fold change: -0.168
- Biosequence: "RRIRVRPPRLPRPRPRPDAHPRP"
  shrunken log2 fold change: 0.21

Measured shrunken log2 fold change, RRIRDRPPRLPRPRPRPHPPPRP : 0.402

Measured shrunken log2 fold change, RRIRHRPPRLPRPRPRPDWEPRP : -0.00783

Measured shrunken log2 fold change, RRIRSRPPRLPRPRPRPRLCPRP : 0.28

Measured shrunken log2 fold change, RRIRQRPPRLPRPRPRPQRFPRP : -0.0204

Measured shrunken log2 fold change, RRIRGRPPRLPRPRPRPQANPRP : 0.111

Measured shrunken log2 fold change, RRIRPRPPRLPRPRPRPDYEPRP : -0.136

---

System: Escherichia coli TOP10
Assay Explanation: shrunken log2 fold change of peptide-encoding DNA abundance (4.5 h post-induction vs induction); higher = less antimicrobial activity (less host growth inhibition)
Measurement Conditions: time post-induction: 4.5 h; library: site-saturation at positions 5, 18, 19, 20
Catalogue of sequences with associated shrunken log2 fold change
# answer = number (no unit)

- Biosequence: "RRIRSRPPRLPRPRPRPYENPRP"
  Result: -0.229

Measured shrunken log2 fold change, RRIRMRPPRLPRPRPRPWYCPRP : -0.336

Measured shrunken log2 fold change, RRIRHRPPRLPRPRPRPCLAPRP : -0.0627

---

System: Escherichia coli TOP10
Assay Explanation: shrunken log2 fold change of peptide-encoding DNA abundance (4.5 h post-induction vs induction); higher = less antimicrobial activity (less host growth inhibition)
Measurement Conditions: time post-induction: 4.5 h; library: site-saturation at positions 5, 18, 19, 20
Measurement Type: shrunken log2 fold change
# answer = number (no unit)

Below are worked cases with known answers.
- Biosequence: "RRIRPRPPRLPRPRPRPPHFPRP"
  System Under Test: "Escherichia coli TOP10"
  Result: 0.646
- Biosequence: "RRIRVRPPRLPRPRPRPQYSPRP"
  System Under Test: "Escherichia coli TOP10"
  Result: 0.0315
- Biosequence: "RRIRLRPPRLPRPRPRPWSVPRP"
  System Under Test: "Escherichia coli TOP10"
  Result: -0.0834
- Biosequence: "RRIRPRPPRLPRPRPRPKEYPRP"
  System Under Test: "Escherichia coli TOP10"
  Result: -0.356
- Biosequence: "RRIRDRPPRLPRPRPRPCTTPRP"
  System Under Test: "Escherichia coli TOP10"
  Result: -0.00176
- Biosequence: "RRIRRRPPRLPRPRPRPNYRPRP"
  System Under Test: "Escherichia coli TOP10"
  Result: 0.0832

Measured shrunken log2 fold change, RRIRERPPRLPRPRPRPEIGPRP : -0.166

Measured shrunken log2 fold change, RRIRLRPPRLPRPRPRPDVYPRP : -0.0227

Measured shrunken log2 fold change, RRIRHRPPRLPRPRPRPTVDPRP : -0.0548

Measured shrunken log2 fold change, RRIRWRPPRLPRPRPRPVSIPRP : 0.235

Measured shrunken log2 fold change, RRIRERPPRLPRPRPRPAVLPRP : 0.034

---

Tested on: Escherichia coli TOP10
Assay Explanation: shrunken log2 fold change of peptide-encoding DNA abundance (4.5 h post-induction vs induction); higher = less antimicrobial activity (less host growth inhibition)
Measurement Conditions: time post-induction: 4.5 h; library: site-saturation at positions 5, 18, 19, 20
Use 0.1 as the dividing line for shrunken log2 fold change, with the line itself on the YES side and lower values as NO.

- Biosequence: "RRIRPRPPRLPRPRPRPPKQPRP"
  Class: "NO"
- Biosequence: "RRIRCRPPRLPRPRPRPLTMPRP"
  Class: "NO"
- Biosequence: "RRIRYRPPRLPRPRPRPQCTPRP"
  Class: "NO"
- Biosequence: "RRIRSRPPRLPRPRPRPLINPRP"
  Class: "NO"
- Biosequence: "RRIRKRPPRLPRPRPRPCSLPRP"
  Class: "NO"
- Biosequence: "RRIRFRPPRLPRPRPRPHCCPRP"
  Class: "NO"
- Biosequence: "RRIRPRPPRLPRPRPRPASMPRP"
  Class: "NO"
- Biosequence: "RRIRARPPRLPRPRPRPPPVPRP"
  Class: "YES"

Turning now to a further record.
q: Identify whether the reported shrunken log2 fold change of the following sequence is 0.1 or greater: RRIRPRPPRLPRPRPRPLQEPRP
a: YES

---

System: Escherichia coli TOP10
Assay Explanation: shrunken log2 fold change of peptide-encoding DNA abundance (4.5 h post-induction vs induction); higher = less antimicrobial activity (less host growth inhibition)
Measurement Conditions: time post-induction: 4.5 h; library: site-saturation at positions 5, 18, 19, 20
just bin them by shrunken log2 fold change: zone 1: < -0.09; zone 2: ≥ -0.09 and < 0.06; zone 3: ≥ 0.06

Reference set (10 entries):
- Biosequence: "RRIRMRPPRLPRPRPRPCVPPRP"
  Class: "zone 3"
- Biosequence: "RRIRFRPPRLPRPRPRPLTRPRP"
  Class: "zone 2"
- Biosequence: "RRIRCRPPRLPRPRPRPQEFPRP"
  Class: "zone 1"
- Biosequence: "RRIRVRPPRLPRPRPRPRGVPRP"
  Class: "zone 3"
- Biosequence: "RRIRSRPPRLPRPRPRPRRQPRP"
  Class: "zone 3"
- Biosequence: "RRIRERPPRLPRPRPRPSFEPRP"
  Class: "zone 1"
- Biosequence: "RRIRYRPPRLPRPRPRPMQPPRP"
  Class: "zone 2"
- Biosequence: "RRIRPRPPRLPRPRPRPISQPRP"
  Class: "zone 2"
- Biosequence: "RRIRVRPPRLPRPRPRPSKMPRP"
  Class: "zone 1"
- Biosequence: "RRIRGRPPRLPRPRPRPFLQPRP"
  Class: "zone 3"

q: Just checking, what class would you give RRIRYRPPRLPRPRPRPHALPRP here?
a: zone 1

q: Just checking, what class would you give RRIRLRPPRLPRPRPRPCNIPRP here?
a: zone 2

q: Just checking, what class would you give RRIRTRPPRLPRPRPRPKARPRP here?
a: zone 3

q: Just checking, what class would you give RRIRYRPPRLPRPRPRPKLVPRP here?
a: zone 2

q: Just checking, what class would you give RRIRARPPRLPRPRPRPMPVPRP here?
a: zone 2

q: Just checking, what class would you give RRIRMRPPRLPRPRPRPASLPRP here?
a: zone 2

q: Just checking, what class would you give RRIRLRPPRLPRPRPRPWTVPRP here?
a: zone 1

q: Just checking, what class would you give RRIRVRPPRLPRPRPRPGVKPRP here?
a: zone 3

q: Just checking, what class would you give RRIRGRPPRLPRPRPRPAYQPRP here?
a: zone 3

q: Just checking, what class would you give RRIRKRPPRLPRPRPRPNNVPRP here?
a: zone 2

q: Just checking, what class would you give RRIRQRPPRLPRPRPRPVCIPRP here?
a: zone 1

q: Just checking, what class would you give RRIRVRPPRLPRPRPRPGKYPRP here?
a: zone 1

q: Just checking, what class would you give RRIRCRPPRLPRPRPRPYHSPRP here?
a: zone 1

q: Just checking, what class would you give RRIRWRPPRLPRPRPRPVCLPRP here?
a: zone 3

q: Just checking, what class would you give RRIRNRPPRLPRPRPRPHWTPRP here?
a: zone 2

q: Just checking, what class would you give RRIRWRPPRLPRPRPRPQSHPRP here?
a: zone 3

---

Catalogue of sequences with associated shrunken log2 fold change
Tested on: Escherichia coli TOP10;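 note: peptides expressed intracellularly from a pBAD plasmid library in pooled LB shake-flask culture, induced with 0.3% L-arabinose, DNA abundance read by NGS, three biological replicates, DESeq2 with apeglm shrinkage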
Assay Explanation: shrunken log2 fold change of peptide-encoding DNA abundance (4.5 h post-induction vs induction); higher = less antimicrobial activity (less host growth inhibition)
Measurement Conditions: time post-induction: 4.5 h; library: site-saturation at positions 5, 18, 19, 20
# answer = number (no unit)

Below are worked cases with known answers.
- Biosequence: "RRIRFRPPRLPRPRPRPYIMPRP"
  System Under Test: "Escherichia coli TOP10"
  shrunken log2 fold change: -1.09
- Biosequence: "RRIRIRPPRLPRPRPRPCCPPRP"
  System Under Test: "Escherichia coli TOP10"
  shrunken log2 fold change: -0.168
- Biosequence: "RRIRCRPPRLPRPRPRPFKGPRP"
  System Under Test: "Escherichia coli TOP10"
  shrunken log2 fold change: 0.0401
- Biosequence: "RRIRKRPPRLPRPRPRPHEWPRP"
  System Under Test: "Escherichia coli TOP10"
  shrunken log2 fold change: 0.3
- Biosequence: "RRIRTRPPRLPRPRPRPDCKPRP"
  System Under Test: "Escherichia coli TOP10"
  shrunken log2 fold change: -0.126
- Biosequence: "RRIRERPPRLPRPRPRPIEPPRP"
  System Under Test: "Escherichia coli TOP10"
  shrunken log2 fold change: -0.26
- Biosequence: "RRIRHRPPRLPRPRPRPETAPRP"
  System Under Test: "Escherichia coli TOP10"
  shrunken log2 fold change: 0.346

Now, please, on to the next sequence.
Measured shrunken log2 fold change, RRIRYRPPRLPRPRPRPFEGPRP : -0.000989
